Data origin, for the record: patent US9127233B2

Assay: Estimation of solubility of the test substance in H2O
Type: physicochemical
Where a name gives a salt, the structure may show the parent alone.
assayReadout: Dissolved (H2O)

compound | readoutValue
Nc1nc(N)nc(N)n1 [Melamine] | (X)
NC(=O)CC[C@H](N)C(=O)O [L-Glutamin, reference compound] | (X)
NC(N)=NCC(=O)O [Guanidine acetic acid] | ((X))
[H]/N=C(\N/C(=N/[H])Nc1ccc(Cl)cc1)NC(C)C [Proguanil hydrochloride, 1-(4-chlorphenyl)-5-isopropylbi-guanide, reference compound] | (X)
CN/C(=N/CCSCc1nc[nH]c1C)NC#N [Cimetidine, reference compound] | ((X))

Could you now consider this next compound?
The recorded Dissolved (H2O) for entry Cl.N=C(N)Nc1ccc(C(=O)O)cc1 [4-Guanidinobenzoic acid hydrochloride] equals (X)

====

Experiment: physchem
Where a name gives a salt, the structure may show the parent alone.
Consider the following molecules; for each one, report its logP.
Give your answer as a number; write no unit.

Lab note: measured logP of NC(N)=NS(=O)(=O)c1ccc(N)cc1 [Sulfaguanidine, reference compound] was -1.24

What the record says about N=C(N)N [Guanidinehydrochloride] : logP is -1.03

Briefly, logP measured for "CN(CC(=O)O)C(=N)N" : -0.884

Per the record, "c1c[nH]cn1" has logP of -0.67

Noted for CN/C(=N/CCSCc1nc[nH]c1C)NC#N [Cimetidine, reference compound] : its logP reads 0.19

The reported value for "Nc1nc(N)nc(N)n1" in terms of logP is -0.961

Entry Cl.N=C(N)NC[C@H](N)C(=O)O [hydrochloride] , logP reported as -3.81

Entry under test: "N=C(N)NCCC(=O)O" . Its logP was -3.77

Briefly, logP measured for "N=C(N)NCCCC(=O)O" : -3.44

Per the record, N=C(N)NCCC[C@H](NC(=O)[C@@H](N)Cc1ccc(O)cc1)C(=O)O [Tyr-Arg (Kyotorphin acetate), L-tyrosyl-L-arginine] has logP of -4

====

Test: physchem
assayReadout: logP
Give the figure only, with no unit attached.

// logP lookup, compound = N=C(N)NCCCC(N)C(=O)O (stereo not drawn) , result: -3.52

Record COC(=O)[C@H](N)CCCNC(=N)N.Cl.Cl [D-arginine methyl ester dihydrochloride] . Reported logP: -2.11

What the record says about N=C(N)NC(N)=O.O.O=S(=O)(O)O [N-Guanylurea sulfate salt hydrate] : logP is 3.54

Please fill in: logP reported for N=C(N)NCCCCN.O=S(=O)(O)O [Agmatin sulfate] = -1.81

So, NC(=O)CC[C@H](N)C(=O)O [L-Glutamin, reference compound] ? Its logP was -2.05

// field: logP; key: Cl.N[C@@H](Cc1c[nH]cn1)C(=O)O.O [Histidine hydrochloride monohydrate] ; value = -4.37

====

Experiment: log P of the test substance
Conditions: water (H2O), test substance mixed with oleic acid
I'd be grateful if you could share measured logP for these entries.
Keep it simple and answer with nothing but the number.

Form field logP, entry "NCCCC[C@H](N)C(=O)O" : -3.42

Short answer for Cc1ccccc1NC(=N)NC(=N)N [1-(o-Tolyl)biguanide] : logP was 1.41

logP for "N=C(N)NCCCCCC(=O)O" is -3.6

Consider Cl.N=C(N)Nc1ccc(C(=O)O)cc1 [4-Guanidinobenzoic acid hydrochloride] . Its measured logP is 0.604
